Listed below: ED50 values for each entry.
test system: Rattus norvegicus; test: Attenuation of CP55940-induced hypotension in iv dosed rat; type: functional
assay.readout: ED50

                                   compound  observed_measurement
0  CCN(CC)S(=O)(=O)NC(=NC)N1CC(c2ccccc2)C(c2ccc(Cl)cc2)=N1 (centres undefined)             0.2 mg/kg
1  CN=C(NS(=O)(=O)N1CCCC1)N1CC(c2ccccc2)C(c2ccc(Cl)cc2)=N1 (centres undefined)             0.7 mg/kg
2  C/N=C(\NS(=O)(=O)N(C)C)N1CC(c2ccccc2)C(c2ccc(Cl)cc2)=N1 (centres undefined)           > 0.3 mg/kg
3  CN/C(=N\S(=O)(=O)N1CCCCCC1)N1CC(c2ccccc2)C(c2ccc(Cl)cc2)=N1 (centres undefined)             0.1 mg/kg
